Read-out: X-box binding protein 1 (XBP1), XBP1 (gene 7494)
test: LTEA_HepaRG_XBP1: Life Technologies and Expression Analysis (LTEA) Assay for X-box binding protein 1 (XBP1) using HepaRG (AID 2283540)
condition-summary: mRNA level, 48 h; actives raise or lower the signal
Active and inactive are the calls of the source. Rule for the calls: active = hit-call score of the fitted dose curve at least 0.9, where 1 is the maximum; inactive = score below 0.9.
Hi! Could you answer with just one of these? active, inactive

Before answering, review these 5 worked examples.
CC1(C)NC(=O)NC1=O | inactive
FC(F)(F)C(F)(F)C(F)(F)C(F)(F)C(F)(F)C(F)(F)CCI | inactive
Cc1nc(-c2ccc3c(c2)CCN(CCC2CCC(NC(=O)/C=C/c4ccc(F)cc4)CC2)CC3)no1 (stereo unspecified) | inactive
Nc1nc(N)c2nc(CNc3ccc(C(=O)N[C@@H](CCC(=O)O)C(=O)O)cc3)cnc2n1 | inactive
NC(=O)Cn1c(=O)cc(CCN2CCN(c3nccc4sccc34)CC2)c2ccc(F)cc21 | active

Consider the record given below.
Query: recorded result category for "COC(=O)c1ccc(O)cc1" in this test
inactive

* * *

test: CCTE_Shafer_MEA_dev_per_network_spike_spike_number_mean: CCTE's Neural Network Formation Assay for Mean Number of Spikes in a Network Spike, Shafer Lab (AID 2284053);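 for AC50: fitted as decrease in spikes per network spike relative to DMSO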
Description: CCTE_Shafer_MEA_dev assay is conducted using Axion Biosystems 48 well microelectrode array (MEA) plates and Maestro recording system. Each well of the MEA plate contains a grid of 16 microelectrodes embedded in the culture surface. Electrically active cells, such as neurons, can be cultured over the electrodes, and electrical activity in these cells can be recorded extracellularly. […]
Calls of active or inactive are those of the source. Rule for the calls: active = hit-call score of the fitted dose curve at least 0.9, where 1 is the maximum; inactive = score below 0.9.
measurement-type: AC50

These recorded examples may help you get a feel for the data.
CC(=O)Oc1ccccc1C(=O)O | inactive
FC(F)(F)C(F)(F)C(F)(F)C(F)(F)C(F)(F)C(F)(F)CCI | inactive
Cc1cc(=O)[nH]c(=S)[nH]1 | inactive
C=CCc1ccc(O)c(OC)c1 | inactive
OC[C@@H](O)[C@@H](O)[C@H](O)[C@H](O)CO | inactive
O=c1[nH]cc(F)c(=O)[nH]1 | 913 nM (active)

Look up AC50 for this molecule: "C[Si]1(C)O[Si](C)(C)O[Si](C)(C)O[Si](C)(C)O1"
inactive

* * *

test: ATG_FoxO_CIS: Attagene CIS-FACTORIAL HepG2 Assay for human Forkhead box O (FoxO) (AID 2282943)
condition-summary: HepG2 Attagene cis-reporter, FoxO element, mRNA; actives raise or lower the signal
Activity calls are given as the source filed them. How the source made its calls: active means hit-call score of the fitted dose curve at least 0.9, where 1 is the maximum; inactive means score below 0.9.
Give one outcome, nothing more. List: 1.0 for active, 0.0 for inactive

Answered examples (5):
CCCCOC(=O)CCCCCCCCC(=O)OCCCC | 0.0
CCCCC(CC)COC(=O)CC(C(=O)OCC(CC)CCCC)S(=O)(=O)O (stereo not given) | 0.0
Clc1cc(Cl)c(Cl)cc1Cl | 0.0
Cc1cccc(Nc2cc(Cl)nc(SCC(=O)O)n2)c1C | 0.0
C=CCOC(=O)c1ccccc1C(=O)OCC=C | 0.0

Per the records of this test, what outcome belongs to "Cc1ccc(C(C)C)c(O)c1" ?
0.0

I would be grateful if you could indicate the recorded call for "O=C(N[C@@H](Cc1ccccc1)[C@@H](O)C(=O)N1C[C@@H](O)[C@@H](O)C1)c1cc2cc(Cl)ccc2[nH]1" .
0.0
